Numbers sourced from ChEMBL document CHEMBL1127433.

Target: UniProtKB P25099
Assay: Percent displacement from adenosine A1 receptor at 10e-7 M in rat brain membrane in vitro.
Format: cell membranes
measure: Displacement (%)

I: CN(C)c1ccccc1Cn1cc(CCNc2ncnc3c2ncn3C2O[C@H](C(=O)NC3CC3)[C@@H](O)[C@H]2O)c2ccccc21 (stereo not given in full)
II: Cc1ccc(C)c(Cn2c(C)c(CCNc3ncnc4c3ncn4C3O[C@H](C(=O)NC4CC4)[C@@H](O)[C@H]3O)c3ccccc32)c1 (stereo not given in full)
III: C#CCn1cc(CCNc2ncnc3c2ncn3C2O[C@H](C(=O)NC3CC3)[C@@H](O)[C@H]2O)c2ccccc21 (stereo not given in full)
Arrange the items listed above so that Displacement rises from first to last. Give your ranking as a list of the labels in the requested order. II, I, III

P: O=C(NC1CC1)[C@H]1OC(n2cnc3c(NCCc4cn(Cc5ccc(Cl)cc5)c5ccccc45)ncnc32)[C@H](O)[C@@H]1O (stereo not given in full)
Q: O=C(NC1CC1)[C@H]1OC(n2cnc3c(NCCc4c(-c5ccccc5)[nH]c5ccccc45)ncnc32)[C@H](O)[C@@H]1O (stereo not given in full)
R: CNC(=O)[C@H]1O[C@@H](n2cnc3c(NCCc4cn(Cc5cc(C)ccc5C)c5ccccc45)ncnc32)[C@H](O)[C@@H]1O
Put these in order: smallest Displacement first, largest last. Give your ranking as a list of the labels in the requested order. R, Q, P

* * *

Biological target: Adenosine receptor A1 (Rattus norvegicus) (UniProt P25099)
Sequence (P25099 whole entry): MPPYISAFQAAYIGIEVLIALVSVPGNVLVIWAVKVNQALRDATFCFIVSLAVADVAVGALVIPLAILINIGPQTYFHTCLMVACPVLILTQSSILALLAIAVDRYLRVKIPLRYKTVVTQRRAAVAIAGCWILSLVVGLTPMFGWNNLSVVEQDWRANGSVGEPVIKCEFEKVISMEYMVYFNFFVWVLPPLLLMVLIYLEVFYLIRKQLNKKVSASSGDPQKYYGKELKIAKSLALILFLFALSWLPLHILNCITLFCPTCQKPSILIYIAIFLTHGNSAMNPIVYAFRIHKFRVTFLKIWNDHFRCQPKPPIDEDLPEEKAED
Experiment: Percent displacement from adenosine A1 receptor at 10e-7 M in rat brain membrane in vitro.
Format: cell membranes
measure: Displacement (%)

compound="C=CCn1cc(CCNc2ncnc3c2ncn3C2O[C@H](C(=O)NC3CC3)[C@@H](O)[C@H]2O)c2ccccc21 (some centres undefined)" studysystem="Adenosine receptor A1 (Rattus norvegicus) (UniProt P25099)" obsvalue=56
compound="Cc1ccc(Cn2cc(CCNc3ncnc4c3ncn4C3O[C@H](C(=O)NC4CC4)[C@@H](O)[C@H]3O)c3ccccc32)cc1 (some centres undefined)" studysystem="Adenosine receptor A1 (Rattus norvegicus) (UniProt P25099)" obsvalue=37
compound="CCNC(=O)[C@H]1OC(n2cnc3c(NCCc4cn(Cc5cc(C)ccc5C)c5ccccc45)ncnc32)[C@H](O)[C@@H]1O (some centres undefined)" studysystem="Adenosine receptor A1 (Rattus norvegicus) (UniProt P25099)" obsvalue=38
compound="O=C(NC1CC1)[C@H]1OC(n2cnc3c(NCCc4cn(Cc5ccc(Cl)s5)c5ccccc45)ncnc32)[C@H](O)[C@@H]1O (some centres undefined)" studysystem="Adenosine receptor A1 (Rattus norvegicus) (UniProt P25099)" obsvalue=47
